system_under_test: OCT2 (Homo sapiens)
Sequence (O15244 1-555): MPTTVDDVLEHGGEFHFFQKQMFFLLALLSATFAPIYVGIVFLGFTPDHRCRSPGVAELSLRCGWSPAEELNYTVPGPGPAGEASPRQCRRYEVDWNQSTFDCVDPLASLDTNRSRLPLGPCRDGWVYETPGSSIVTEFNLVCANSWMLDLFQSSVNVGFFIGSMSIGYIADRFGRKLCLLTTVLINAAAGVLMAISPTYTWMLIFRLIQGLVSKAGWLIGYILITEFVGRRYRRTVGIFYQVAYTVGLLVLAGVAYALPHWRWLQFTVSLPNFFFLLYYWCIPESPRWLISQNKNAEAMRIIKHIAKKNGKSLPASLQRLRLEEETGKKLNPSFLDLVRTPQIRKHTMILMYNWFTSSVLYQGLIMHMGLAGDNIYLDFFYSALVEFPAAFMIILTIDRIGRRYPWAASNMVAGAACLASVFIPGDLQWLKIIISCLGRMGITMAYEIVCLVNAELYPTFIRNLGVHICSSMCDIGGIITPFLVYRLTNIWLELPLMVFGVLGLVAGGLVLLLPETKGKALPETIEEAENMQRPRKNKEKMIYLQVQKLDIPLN
test_method_notes: Inhibition of model substrate uptake in OCT2-overexpressing HEK293 cells
run_conditions: human, OCT2-overexpressing HEK293 cells, pH 7.4, probe ASP+ (2 μM), ASP+ inhibition [%], OCT2; 20 μM inhibitor, 2 μM ASP+, 5 min
// label = 1 if inhibition at 5 min, 20 μM is not less than 40%, otherwise -1

# count of solved cases: 10
{"columns": ["molecule", "system_under_test", "label"],
 "data": [
  ["CNCC[C@@H](Oc1ccc(C(F)(F)F)cc1)c1ccccc1 [(R)-Fluoxetine]", "OCT2 (Homo sapiens)", 1],
  ["CC(C)(C)NC[C@@H](O)COc1nsnc1N1CCOCC1 [(R)-Timolol]", "OCT2 (Homo sapiens)", -1],
  ["CN(C)CCC[C@@]1(c2ccc(F)cc2)OCc2cc(C#N)ccc21 [(S)-Citalopram]", "OCT2 (Homo sapiens)", 1],
  ["CCCCN1CCCC[C@@H]1C(=O)Nc1c(C)cccc1C [(R)-Bupivacaine]", "OCT2 (Homo sapiens)", 1],
  ["COc1ccccc1OCCNC[C@H](O)COc1cccc2[nH]c3ccccc3c12 [(S)-Carvedilol]", "OCT2 (Homo sapiens)", 1],
  ["CNC[C@@H](O)c1cccc(O)c1 [(S)-Phenylephrine]", "OCT2 (Homo sapiens)", -1],
  ["CCCCN1CCCC[C@H]1C(=O)Nc1c(C)cccc1C [(S)-Bupivacaine]", "OCT2 (Homo sapiens)", 1],
  ["CCCN[C@@H]1CCc2nc(N)sc2C1 [(R)-Pramipexole]", "OCT2 (Homo sapiens)", 1],
  ["CCN(CC)CC#CCOC(=O)[C@](O)(c1ccccc1)C1CCCCC1 [(R)-Oxybutynine]", "OCT2 (Homo sapiens)", 1],
  ["CC(C)NC[C@@H](O)COc1cccc2ccccc12 [(R)-Propranolol]", "OCT2 (Homo sapiens)", 1]
]}

Answer whether inhibition at 5 min, 20 μM of CNCC[C@@H](Oc1cccc2ccccc12)c1cccs1 [(R)-Duloxetine] is greater than or equal to 40%.
1

Check the entry COc1ccccc1OCCNC[C@@H](O)COc1cccc2[nH]c3ccccc3c12 [(R)-Carvedilol] : does inhibition at 5 min, 20 μM equal or exceed 40%?
1

Answer whether inhibition at 5 min, 20 μM of CCC(CO)NCCNC(CC)CO [(R,R)-Ethambutol] is greater than or equal to 40%.
-1

Could you verify whether the entry Cc1cccc(C)c1OC[C@@H](C)N [(R)-Mexiletine] shows inhibition at 5 min, 20 μM of no less than 40%?
1

Given CN(C)CCc1c[nH]c2ccc(C[C@H]3COC(=O)N3)cc12 [(S)-Zolmitriptan] , state whether its inhibition at 5 min, 20 μM is at least 40%.
-1

Given CCCN[C@H]1CCc2nc(N)sc2C1 [(S)-Pramipexole] , state whether its inhibition at 5 min, 20 μM is at least 40%.
-1

Threshold query (inhibition at 5 min, 20 μM >= 40%) on CC(C)(C)NC[C@H](O)COc1nsnc1N1CCOCC1 [(S)-Timolol]
1

Given CN(C)CCC[C@]1(c2ccc(F)cc2)OCc2cc(C#N)ccc21 [(R)-Citalopram] , state whether its inhibition at 5 min, 20 μM is at least 40%.
1

Can CC(C)Cc1ccc([C@H](C)C(=O)O)cc1 [(S)-Ibuprofen] be said to have inhibition at 5 min, 20 μM at or above 40%?
-1
